assay: yeast display, Sf9 membrane polyspecificity reagent, FACS + sequencing; frameworks hold sequencing errors

biopolymer.sequence	polyreactivity (PSR sort gate)
QVQLVESGGGLVQAGGSLRLSCAASGYTFLISAMGWYRQAPGKERELVAVISSGGSTSYADSVKGRFTISRDNAKNTVYLQMNSLKPEDSAVYYCAAALAGGRRGGDYWGQGTQVTVSS	low polyreactivity
QVQLVESGGGLVQAGGSLRLSCADSGRTFSSYAMGWYRQAPGKERELVARISSSGGRTSYADSVKGRFTISRDNAKNTVYLQMNSLKPEDTAVYYCAKTYHWLYDYWGQGTQVTVSS	high polyreactivity
QVQLVESGGGLVHAGGSLLLSCSASGSIFTVNAMGWYRQAPGKERELVAAISSGGSTHYADSVKGRFTISRDNAKNTVYLQMISLKPEDTAVYYCAAVYVPYYGYYTRYDYWGQGTQVTVSS	low polyreactivity
QVQLVESGGGLVQAGGSLRLSCAASGSIFNDYAMGWYRQAPGKERELVATISSGGDTYYADSVKGRFTISRDNAKNTVYLQMNSLKPEDTAVYYCAALTGGYVVYTDSYDYWGQGTQVTVSS	low polyreactivity
QVQLVESGGALVQAGGSLRLSCAASGLTFTDYAMGWYRPAPGQERELVAGIWDGGSTYYADSVKGRFTISRDNAKNTVYLQMNSLKPEDTAVYYCAAEDWWTSFPEYYYWGQGTQVTVSS	high polyreactivity
QVQLVESGGGLVQAGGSLRLSCAASGRIFTYYAMGWYRQAPGKERELVAAINWGVVTTYYADSVKGRFTISRDNAKNTVYLQMNSLKPEDSAVYYCAADWFAANYYVNPVSALYYWGQGTQVTVSS	low polyreactivity
QVQLVESGGGIVQEGGSLRLSCAASGSTFDQNGMGGYRQAPGKERELVATISTSAGTYYADSVKGRFTISRDNAKNTVYLQMNSLKPEDTAVYYCNADLGGQYKEFDYWGQGTQVTVSS	low polyreactivity
QVQLVESGGGLVQAGGSLRLSCAASGYTFRYYAMGWYRQAPVKERELVARITGRAGSTYYADSVKGRFTISRDNAKNTVYLQMNSLKPEDTAVYYCAASIREGFYWGQGTQVTVSS	high polyreactivity
QVQLVESGGGLVQAGGSLRLSCAASGRIVRRYARGWYIQAPGKERELVAAITNNGGNTYYADSVKGRFTISRDNAKNTVYLQMNSLKPEDTAVYYCKAGYYWGQGTQVTVSS	high polyreactivity
QVQLVESGGGLVQAGGSLRLSCAASGYIFSYYAMGWYRQAPGKERELVAAITSSGGRTYYADSVKGRFTISRDNAKNTVYLQMNSLKPEDTAVYYCNRDYSSYDTEDYWGQGTQVTVSS	high polyreactivity
QVQLVESGGGLVQAGGSLRLSCAASGRIFYYNAMGWYRQAPGKEMELVAAITSGGSTNYADSVKGRFTISRDNAKNTVYLQMNSLKPEDTAVYYCAADYYYYVAGVHYDYWGQGTQVTVSS	low polyreactivity

* * *

experiment: yeast display, Sf9 membrane polyspecificity reagent, FACS + sequencing; frameworks hold sequencing errors

biopolymer.sequence	polyreactivity (PSR sort gate)
QVQLVESGGGLVQAGGSLRLSCAASVSTFYSYAMGAYRKAPGKERELVATISTRGGSTYYADSVKGRFTISRDNAKNTVYLHMNSLKPEDTAVYYCNVRLEYRYYRGDYWGHGTQVTVSS	high polyreactivity
QVQLVESGGGLVQAGGSLRLSCAASGSIFGRYVMGWYRQAPGKERELVAAISGSGTSTYYADSVKGRFTISRDNAKNTVFLQMNSLKPEDTAVYYCAARDIKSSHDYDYWGQGTQVTVSS	low polyreactivity
QVQLVESGGGLFQAGGSLRISCAASGITFYGNAMGWYRQAPGKERELDATISSGGGTNYADSVKGRFTISRDNAKNTVYLQMNSLKPEDTAVYYCATDLSTVDYNYWGQGTQVTVSS	low polyreactivity
QVQLVESGGGLVQAGGSLRLSCAASGRTFSTYAMGWYRQAPGKERELVAAISWRGARTYYADSVKGRFTISRDNAKNTVYLQMNSLKPEDTAVYYCAVRSLVAIRGRAYYYWGQGTQVTVSS	high polyreactivity
QVQLVESGGGLVQAGGSLRLSCAASGSTFDIYAMGWYRQAPGKERELVAAITGSSGSTYYADSVKGRFTISRDNAKNTVYLQMNSLKPEDTAVYYCAADIVRVSTVPSLVYSYYWGQGTQVTVSS	low polyreactivity

* * *

assay: yeast display, Sf9 membrane polyspecificity reagent, FACS + sequencing; frameworks hold sequencing errors

biopolymer.sequence	polyreactivity (PSR sort gate)
QVQLVESGGGLVQAGGSLRLRCAASGSTFASYAMGGYRQAPGKERELVAAITRSGGSTYYADSVKGRFTISRVKAKNTVYLQMNSLKPEDTAVYYCARRAVYGIFDYWGQGTQVTVSS	high polyreactivity
QVQLVESGGGLVQAGGSLRLSCAASGRTFFENAMGWYRQAPGKEREFVAAISYNGGSTYYADSVKGRFTISRDNAKNTVYLQMNSLKPEDTAVYYCAAEADGLRYDDNYWGQCTQVTVSS	low polyreactivity
QDHLVESGGGLVQAGGSLRLSCAASGRTVGIYAMGWYRQAPGKVRELVASISWSGGRTYYADSVKGRFTISRENAKNTVYLQMNSLKPEDTAVYYCAAYGVYYPRSWLYFDWYGYCGQGTQVTVSS	high polyreactivity
QVQLVESGGGLIQAGGSRRLSCAASGIIFYPYTMGWYRQARGKERELVAAIRQSGTSTYYADSVKGRFTISRDNAKNTVYLQMNSLKPEDTAVYYCNADDHIYWRKGYDYWGQGTQVTVSS	low polyreactivity
QVQLVESGGGLVQAGGSLRLSCAASGSIFDFYAMGWYRQAPGKERELVAAISWSGGNTYYADSVKGRFTISRDNAKNTVYLQMNSLKPEDTAVYYCNRGSIWRLLTGDFDYWGQGTQVTVSS	low polyreactivity

* * *

assay: yeast display, Sf9 membrane polyspecificity reagent, FACS + sequencing; frameworks hold sequencing errors

biopolymer.sequence	polyreactivity (PSR sort gate)
QVQLVESGGGLVQAGGSLRLSCAASGRIFDHYAMVWYRQAPGKERELVAAITRSGGITYYADSVKGRFTISRDNAKYTVYLQMNSLKPEDTAVYYCAALSYRYTDNFDYWGQGTQVTVSS	low polyreactivity
QFQLVESGGGLVQAGGSLRLSCAASGSIFRGYTMGWYRQAPGKERELVAAISWSGGSTYYADSVKGRFTISRDNAKNTVYLQMNSLKPEDTAVYFCAAGDYYHRIFLWYDYWGQGTQVTVSS	low polyreactivity
QVQLVESGGGLVQAGGSLRLSCAASGSTFSYYAMGWYRQAPGKERELVASITWNGARTYYADSVKGRFTISRDNAKNTVYLQMNSLKPEDTAVYYCADRHKYAFWTAFGNYWGQGTQVTVSS	high polyreactivity
QVQLVESGGGLVQPGGSLRLSCAASGITFRGYAMGWYRQAPGKERELVATISYRGGNTYYADSVKGRFTISRDNAKNTVYLQMNSLKPEDTAVYYCARKYFRTSNLYGYWGQGTQVTVSS	high polyreactivity
QVQLVESGGGIVQAGGSLRLSCAASGFTFAVNAMGWYRQAPGKERELVAGISRRGGNTYYADSVKGRFTISRDNAKNTVYLQMNSLKPEDTAVYYCARYSYSYWGQGTQVTVSS	high polyreactivity
QDQLVQSGGGLVQAGGSLRKSCAASGSTFNPNTMGWNKQAPGKERELVASITWRGGRTYYADSVKGRFTISRDNAKNTVSLQMNSLKPEDTAVFYCASVTFSYDGYDYWGQGTQVTVTS	low polyreactivity
QVQLVESGGGLVQAGGSLRLSCAASGNIFSWYAMGWYRQAPGKERELVAAITSGGRTYYADSVKGRFTISRDNAKNTVYLQMNSLKPEDTAVYYCNAVSRLYNRRDYWGQGTQVTVSS	high polyreactivity
QVQLVESGGGLVQAGGSLRLSCAASGRTIRYYTMGWYRQAPGKERELVAAISRSGGNTYYADSVKGRFTISRDNAKITVYLQMNSLKPEETAVYYCNKEYRHYVGRHDYWGQGTQVTVSS	high polyreactivity
QVQRVESGGGFVQAGGSLRLSSAASGFTFGAYAMGWYRQAPGKEMELVASISWSGGSTYYADSVKGRFTISRVNAKNTVYLQMNSLKPEDTAVYYCNKDFVYPDDDGLFDYWGQGTQVTVSS	low polyreactivity
QVQLVESGGGLVQAGGSLRLSCAASGSTFRWYAMGWYRQAPGKERELVAAISWSGSTTYYADSVKGRFTISRDNAKNTVYLQMNSLKPEDTAVYYCAAEVVFFGWNYDYWGQGTQVTVSS	high polyreactivity
QVQLVESGGGLVQAGGSLSLSCAASGSSFGGYTMGWYRQAPGKERELVAAISRRGGNTYYADSVKGRFTISRDNAKNTVYLQMNSLNPEETAVYYCAVRWPSARIPVKLDYWGQGTQVTVSS	high polyreactivity
QVQLVESGGGLVQAGGSLRLSCAASGRIYYTYAMGWYRQAPGKERELVAAIRRGGSTNYADSVKGRFTISRDNAKNTVYLQMNSLKPEDTAVYYCAADVYRASFWYGYWGQGTQVTVSS	low polyreactivity
QVQLVESGGGLVQAGGSLRLSCAASGRIFGFNAMGWYRQAPGKERELVAGITDSSGRTNYADSVKGRFTISRDNAKNTVYLQMNSLKPEDTAVYYCAKDGLVIPADGSDYWGQGTQVTVSS	low polyreactivity
QDQLVESGGGLVQAGGSLRLSCAASGFIYFQYAMGWYRQAPGKERELVAAISGSGVTTYYADSVKGRFTISRDNAKYTVYLQMNSLKPEDTAVYYCNAALRWKYDWGQGTQVTVSS	low polyreactivity
QVQLVESGGGLVQAGGSLRLSCAASGSTFYFYAMGWYRQAPGKERELVAVISSGGRTYYADSVKGRFTISRDNAKNTVYLQMNSLKPEDTAVYYCAASWPSSLTYYYWGQGTQVTVSS	low polyreactivity
QVQLVESGGGLVQAGGSLRLSCAASGIIFSGYAMGWYRQAPGKERELVASIRSGSNTYYADSVKGRFRISRDNAKNTVYLQMNSLKPEDTAVYYCAARVVPATFRFIRYPHPYYYWGQGTQVTVSS	low polyreactivity
QVQLVESGGGLVQAGGSLRLSCAASGRTLRYYAMGRYIQAPGKERELVAIITSTGSTYYADSVKGRFTISRDNAKNTVYLQMNSLKPEDTAVYYCNRVISVSLDYLGENYWGQGTQVTVSS	high polyreactivity
QVQLVESGGGLVQAGGSLRLSCAASGSTFSHNAMGWYRQAPGKERELVAAISSDGTTYYADSVKGRFTISRDNAKNTVYLQMNSLKPEDTAVYYCNKTRWTQRTSFDYWGQGTQVTVSS	low polyreactivity
QVQLVESGGGLVQAGGSLRLSCAASGFTFVPYAMGWYRQAPGKEREFVATISWSAGRTYYADSVKGRFTISRDNAKNTVYLQMNSLKPEDTAVYYCNARQWCQRYSKVRYDFWGQGTQVTVSS	high polyreactivity
QVQLVESGVGLVQAGRSLRLSCAASGRTFVQYAMGWYRQAPGKERELVARISRRGGSTYYADSVKGRFTISRDKAKNSVYLQMNSLKPEDTAVYYFAADAYPYWYDYWGQGTQVTVSS	high polyreactivity
QVQLVESGGGLVQAGGSLRLSCAASGSIFAYYAMGRNRQAPGKERELVAAITFSGVSTYYADSVKGRFTISRDNAKNTVYLQMNILKPEDTAVYYCAADPYQNYWWWYDYWGQGTQVTVSS	low polyreactivity

The origin of these recorded values is the nanobody polyreactivity screen of Harvey et al. (2022).
